- Tested on: S. Typhimurium 14028
- assay-name: Anti-intracellular Salmonella activity in infected RAW264.7 cells (HCA)
- Format: cell-based, Salmonella Typhimurium
- measurement-conditions: IC50 RAW264.7 / EC50 S. Typhimurium 14028
Cut-off 20 on Selectivity ratio (IC50/EC50): below means condition met, at or above means condition not met.

Look over these answered cases.
| compound | assigned-label |
| --- | --- |
| CN1CCN(CCCNC2=Nc3cccnc3Nc3ccc(Cl)cc32)CC1 [SW31] | condition met |
| Clc1ccc2c(c1)C(NCCN1CCNCC1)=Nc1ccccc1O2 [SW14] | condition not met |

Query: Report whether reported Selectivity ratio (IC50/EC50) is lower than 20 (strictly) for CC(C)CCNC1=Nc2ccccc2Oc2ccc(Cl)cc21 [SW18]
Response: condition met
